The measured values listed here are drawn from ChEMBL document CHEMBL3351380.

- procedure.summary: Metal chelating activity of the compound assessed as formation of iron complex after 20 mins by spectrophotometry
- Format: physicochemical
Each entry below lists one item and its recorded IC50 value.
observation.type: IC50 (µg/mL)

O=C(/C=C/c1cccc([N+](=O)[O-])c1)c1ccccc1	104.76
CCOC(=O)C1C(=O)C=C(c2ccc(O)cc2)CC1c1cccc([N+](=O)[O-])c1 (stereo not given)	1014
O=C(O)CN(CCN(CC(=O)O)CC(=O)O)CC(=O)O [EDETIC ACID]	50.98
COc1ccc(C2=CC3=NOC(=O)C3C(c3cccc([N+](=O)[O-])c3)C2)cc1 (stereo not given)	704.31
O=C1NN=C2C=C(c3ccccc3)CC(c3cccc([N+](=O)[O-])c3)C12 (stereo not given)	93.04

###

- Test system: Bacillus subtilis
- procedure.summary: Antimicrobial activity against Bacillus subtilis NCIB 3610 assessed as zone of inhibition at 100 ug/ml by agar well diffusion method
- Type: functional
- details: subsp. subtilis str. NCIB 3610, read-out: IZ
observation.type: zone of inhibition at 100 µg/mL (mm)

O=C1NN=C2C=C(c3ccc(Br)cc3)CC(c3cccc([N+](=O)[O-])c3)C12 (centres undefined)	13
COc1ccc(C2=CC3=NNC(=O)C3C(c3cccc([N+](=O)[O-])c3)C2)c(OC)c1 (centres undefined)	9
COc1ccc(C2=CC3=NOC(=O)C3C(c3cccc([N+](=O)[O-])c3)C2)cc1 (centres undefined)	12
O=C1NN=C2C=C(c3cccs3)CC(c3cccc([N+](=O)[O-])c3)C12 (centres undefined)	22
O=C1NN=C2C=C(c3ccccc3)CC(c3cccc([N+](=O)[O-])c3)C12 (centres undefined)	13
COc1ccc(C2=CC3=NNC(=O)C3C(c3cccc([N+](=O)[O-])c3)C2)cc1 (centres undefined)	11
O=C1ON=C2C=C(c3cccs3)CC(c3cccc([N+](=O)[O-])c3)C12 (centres undefined)	14
CCOC(=O)C1C(=O)C=C(c2cccs2)CC1c1cccc([N+](=O)[O-])c1 (centres undefined)	12
CCOC(=O)C1C(=O)C=C(c2ccc(O)cc2)CC1c1cccc([N+](=O)[O-])c1 (centres undefined)	12

###

- procedure.summary: Metal chelating activity of the compound assessed as formation of iron complex after 20 mins by spectrophotometry
- Format: physicochemical
observation.type: IC50 (µg/mL)

CCOC(=O)C1C(=O)C=C(c2ccc(Br)cc2)CC1c1cccc([N+](=O)[O-])c1 (stereo not given)	1148.57
O=C(/C=C/c1cccc([N+](=O)[O-])c1)c1cccs1	1029.41
CCOC(=O)C1C(=O)C=C(c2ccc(OC)cc2OC)CC1c1cccc([N+](=O)[O-])c1 (stereo not given)	1006.67
COc1ccc(C2=CC3=NNC(=O)C3C(c3cccc([N+](=O)[O-])c3)C2)c(OC)c1 (stereo not given)	84.39
O=C(/C=C/c1cccc([N+](=O)[O-])c1)c1ccc(Br)cc1	202.56
COc1ccc(C(=O)/C=C/c2cccc([N+](=O)[O-])c2)c(OC)c1	95.13
COc1ccc(C2=CC3=NNC(=O)C3C(c3cccc([N+](=O)[O-])c3)C2)cc1 (stereo not given)	85.58
O=C1ON=C2C=C(c3cccs3)CC(c3cccc([N+](=O)[O-])c3)C12 (stereo not given)	675.67
O=C1ON=C2C=C(c3ccc(Br)cc3)CC(c3cccc([N+](=O)[O-])c3)C12 (stereo not given)	816.48
O=C1ON=C2C=C(c3ccc(O)cc3)CC(c3cccc([N+](=O)[O-])c3)C12 (stereo not given)	360.98

###

- procedure.summary: Antioxidant activity assessed as DPPH radical scavenging activity after 30 mins by spectrophotometry
- Assay type: physicochemical
Threshold-based label: IC50 under 200 µg/mL gives yes (1), IC50 not under 200 µg/mL gives no (0).

O=C1ON=C2C=C(c3ccc(Br)cc3)CC(c3cccc([N+](=O)[O-])c3)C12 (stereo not given)	no (0)
O=C1O[C@H]([C@@H](O)CO)C(O)=C1O	yes (1)
O=C1NN=C2C=C(c3ccc(O)cc3)CC(c3cccc([N+](=O)[O-])c3)C12 (stereo not given)	yes (1)
COc1ccc(C2=CC3=NNC(=O)C3C(c3cccc([N+](=O)[O-])c3)C2)cc1 (stereo not given)	yes (1)
O=C1ON=C2C=C(c3cccs3)CC(c3cccc([N+](=O)[O-])c3)C12 (stereo not given)	no (0)
COc1ccc(C2=CC3=NOC(=O)C3C(c3cccc([N+](=O)[O-])c3)C2)c(OC)c1 (stereo not given)	no (0)
O=C(/C=C/c1cccc([N+](=O)[O-])c1)c1ccc(O)cc1	yes (1)
CCOC(=O)C1C(=O)C=C(c2ccc(Br)cc2)CC1c1cccc([N+](=O)[O-])c1 (stereo not given)	no (0)
O=C1NN=C2C=C(c3ccc(Br)cc3)CC(c3cccc([N+](=O)[O-])c3)C12 (stereo not given)	yes (1)
COc1ccc(C(=O)/C=C/c2cccc([N+](=O)[O-])c2)cc1	yes (1)
COc1ccc(C2=CC3=NNC(=O)C3C(c3cccc([N+](=O)[O-])c3)C2)c(OC)c1 (stereo not given)	yes (1)
CCOC(=O)C1C(=O)C=C(c2ccc(O)cc2)CC1c1cccc([N+](=O)[O-])c1 (stereo not given)	yes (1)
O=C1ON=C2C=C(c3ccccc3)CC(c3cccc([N+](=O)[O-])c3)C12 (stereo not given)	no (0)
O=C(/C=C/c1cccc([N+](=O)[O-])c1)c1ccc(Br)cc1	yes (1)
O=C1NN=C2C=C(c3cccs3)CC(c3cccc([N+](=O)[O-])c3)C12 (stereo not given)	yes (1)
COc1ccc(C2=CC3=NOC(=O)C3C(c3cccc([N+](=O)[O-])c3)C2)cc1 (stereo not given)	no (0)
CCOC(=O)C1C(=O)C=C(c2ccccc2)CC1c1cccc([N+](=O)[O-])c1 (stereo not given)	yes (1)
CCOC(=O)C1C(=O)C=C(c2cccs2)CC1c1cccc([N+](=O)[O-])c1 (stereo not given)	no (0)
COc1ccc(C(=O)/C=C/c2cccc([N+](=O)[O-])c2)c(OC)c1	yes (1)
O=C(/C=C/c1cccc([N+](=O)[O-])c1)c1cccs1	yes (1)
O=C1NN=C2C=C(c3ccccc3)CC(c3cccc([N+](=O)[O-])c3)C12 (stereo not given)	yes (1)
O=C(/C=C/c1cccc([N+](=O)[O-])c1)c1ccccc1	yes (1)

###

- procedure.summary: Antioxidant activity assessed as DPPH radical scavenging activity after 3 hrs by spectrophotometry
- Format: physicochemical
observation.type: IC50 (µg/mL)

O=C1NN=C2C=C(c3cccs3)CC(c3cccc([N+](=O)[O-])c3)C12 (stereo not given)	63.78
CCOC(=O)C1C(=O)C=C(c2ccc(Br)cc2)CC1c1cccc([N+](=O)[O-])c1 (stereo not given)	409.1
O=C(/C=C/c1cccc([N+](=O)[O-])c1)c1cccs1	90.73
O=C1ON=C2C=C(c3ccc(O)cc3)CC(c3cccc([N+](=O)[O-])c3)C12 (stereo not given)	118.69
O=C(/C=C/c1cccc([N+](=O)[O-])c1)c1ccccc1	112.5
O=C1ON=C2C=C(c3cccs3)CC(c3cccc([N+](=O)[O-])c3)C12 (stereo not given)	197.78
O=C1NN=C2C=C(c3ccccc3)CC(c3cccc([N+](=O)[O-])c3)C12 (stereo not given)	59.5
CCOC(=O)C1C(=O)C=C(c2cccs2)CC1c1cccc([N+](=O)[O-])c1 (stereo not given)	133.66
COc1ccc(C2=CC3=NNC(=O)C3C(c3cccc([N+](=O)[O-])c3)C2)c(OC)c1 (stereo not given)	39.67
COc1ccc(C2=CC3=NNC(=O)C3C(c3cccc([N+](=O)[O-])c3)C2)cc1 (stereo not given)	38.38

###

Documented IC50 across a set of compounds
- procedure.summary: Antioxidant activity assessed as DPPH radical scavenging activity after 3 hrs by spectrophotometry
- Format: physicochemical
observation.type: IC50 (µg/mL)

O=C1NN=C2C=C(c3ccc(Br)cc3)CC(c3cccc([N+](=O)[O-])c3)C12 (stereo not given)	77.89
O=C1ON=C2C=C(c3ccccc3)CC(c3cccc([N+](=O)[O-])c3)C12 (stereo not given)	215.71
CCOC(=O)C1C(=O)C=C(c2ccc(OC)cc2OC)CC1c1cccc([N+](=O)[O-])c1 (stereo not given)	95.43
O=C1NN=C2C=C(c3ccc(O)cc3)CC(c3cccc([N+](=O)[O-])c3)C12 (stereo not given)	30.23
O=C(/C=C/c1cccc([N+](=O)[O-])c1)c1ccc(O)cc1	40.67

###

- procedure.summary: Antioxidant activity assessed as DPPH radical scavenging activity after 3 hrs by spectrophotometry
- Format: physicochemical
observation.type: IC50

O=C1O[C@H]([C@@H](O)CO)C(O)=C1O	25.26 µg/mL
O=C1ON=C2C=C(c3ccc(Br)cc3)CC(c3cccc([N+](=O)[O-])c3)C12 (stereo not given)	218.75 µg/mL
O=C(/C=C/c1cccc([N+](=O)[O-])c1)c1ccc(Br)cc1	122.8 µg/mL
CCOC(=O)C1C(=O)C=C(c2ccccc2)CC1c1cccc([N+](=O)[O-])c1 (stereo not given)	143.6 µg/mL
CCOC(=O)C1C(=O)C=C(c2ccc(OC)cc2)CC1c1cccc([N+](=O)[O-])c1 (stereo not given)	98.53 µg/mL
CCOC(=O)C1C(=O)C=C(c2ccc(O)cc2)CC1c1cccc([N+](=O)[O-])c1 (stereo not given)	86.67 µg/mL
COc1ccc(C2=CC3=NOC(=O)C3C(c3cccc([N+](=O)[O-])c3)C2)cc1 (stereo not given)	118.69 µg/mL
COc1ccc(C(=O)/C=C/c2cccc([N+](=O)[O-])c2)c(OC)c1	96.22 µg/mL
COc1ccc(C2=CC3=NOC(=O)C3C(c3cccc([N+](=O)[O-])c3)C2)c(OC)c1 (stereo not given)	140.02 µg/mL
COc1ccc(C(=O)/C=C/c2cccc([N+](=O)[O-])c2)cc1	92.46 µg/mL
